System: erythrocytes
Test: Activity to improve the deformation of erythrocytes (time to pass through millipore filter)
Assay type: cell-based, male New Zealand rabbit
Details: rabbit washed erythrocytes treated with Ca^2+ and ionofore A-23187; 5 μm millipore filter
Measured Activity to improve the deformation of erythrocytes [pass through time (sec.)] by item
reported-endpoint: Activity to improve the deformation of erythrocytes [pass through time (sec.)] (s)

compound=COc1ccc(CON=C(c2ccccc2)c2ccccn2)cc1OC measured=16
compound=Fc1cccc(C(=NOCCc2ccccc2)c2cccnc2)c1 measured=18
compound=c1ccc(CCON=C(c2cccnc2)c2cccs2)cc1 measured=17
compound=Clc1ccccc1C(=NOCCc1ccccc1)c1cccnc1 measured=12
compound="NCCCCCCNS(=O)(=O)c1cccc2c(Cl)cccc12 [Compound W-7, reference compound]" measured=25
compound=Clc1cccc(CCON=C(c2ccccc2)c2cccnc2)c1 measured=15
compound=c1ccc(CCON=C(c2ccccc2)c2cccnc2)cc1 measured=12
compound=c1ccc(C(=NOCc2cccc3ccccc23)c2cccnc2)cc1 measured=20
compound=Clc1ccccc1CCON=C(c1ccccc1)c1cccnc1 measured=18
compound=c1ccc(OCCON=C(c2ccccc2)c2cccnc2)cc1 measured=18
